- Tested on: rodent lifetime carcinogenesis bioassay, tumor incidence TD50
- experimentalProtocol: carcinogenic potency in animals, long-term in vivo studies, CPDB compilation (AID 1745844)
- details: monkey; strain Cynomolgus [Macaca fascicularis]; both sexes; in feed; site: esophagus; lesion: squamous-cell papilloma; dosed 928 weeks; study length 1135 weeks
parameter: TD50 (mg/kg/day)
# output: bare number, implied unit mg/kg/day

QUERY: # get_value(readout='TD50', item= CN(N=O)C(N)=O )
RESULT: 29.2

====

- Test system: rodent lifetime carcinogenesis bioassay, tumor incidence TD50
- experimentalProtocol: carcinogenic potency in animals, long-term in vivo studies, CPDB compilation (AID 1745844)
- details: rat; strain Fischer 344; males; by gavage; site: spleen; lesion: fibrosarcoma; dosed 103 weeks; study length 105 weeks
parameter: TD50 (mg/kg/day)
Only the number, expressed in mg/kg/day, is required.

QUERY: I have this compound here, Nc1ccc(Cl)cc1 , and I need its recorded TD50.
RESULT: 19

====

- Tested on: rodent lifetime carcinogenesis bioassay, tumor incidence TD50
- experimentalProtocol: carcinogenic potency in animals, long-term in vivo studies, CPDB compilation (AID 1745844)
- details: rat; strain Fischer 344; females; in feed; site: rectum; lesion: polypoid adenoma; dosed 103 weeks; study length 104 weeks
parameter: TD50

QUERY: Which TD50 reading was recorded for the molecule Nc1c(Br)cc(Br)c2c1C(=O)c1ccccc1C2=O ?
RESULT: 74 mg/kg/day

====

- Test system: rodent lifetime carcinogenesis bioassay, tumor incidence TD50
- experimentalProtocol: carcinogenic potency in animals, long-term in vivo studies, CPDB compilation (AID 1745844)
- details: rat; strain Fischer 344; females; by gavage; site: liver; lesion: hepatocellular carcinoma; dosed 47 weeks; study length 110 weeks
Activity calls are given as the source filed them. The rule behind the calls is not given here.
parameter: TD50

QUERY: Requested read-out: TD50. Entry: O=NN1CSCSC1
RESULT: 10.5 mg/kg/day (inactive)

====

- Test system: rodent lifetime carcinogenesis bioassay, tumor incidence TD50
- experimentalProtocol: carcinogenic potency in animals, long-term in vivo studies, CPDB compilation (AID 1745844)
- details: mouse; strain B6C3F1; males; by gavage; site: subcutaneous tissue; lesion: fibrosarcoma + fibroma + neurofibrosarcoma + sarcoma; dosed 103 weeks; study length 104 weeks
parameter: TD50

QUERY: Form field: reported TD50 of CC1=CC(=O)CC(C)(C)C1
RESULT: 703 mg/kg/day

====

- Tested on: rodent lifetime carcinogenesis bioassay, tumor incidence TD50
- experimentalProtocol: carcinogenic potency in animals, long-term in vivo studies, CPDB compilation (AID 1745844)
- details: rat; strain Fischer 344; males; by gavage; site: pituitary gland, anterior; lesion: adenoma, NOS + carcinoma, NOS; dosed 104 weeks; study length 106 weeks
parameter: TD50 (mg/kg/day)
Answer format: numeric, mg/kg/day implied, no suffix.

QUERY: Fill in: TD50 of OC[P+](CO)(CO)CO is ___
RESULT: 3.3

====

- Test system: rodent lifetime carcinogenesis bioassay, tumor incidence TD50
- experimentalProtocol: carcinogenic potency in animals, long-term in vivo studies, CPDB compilation (AID 1745844)
- details: rat; strain Fischer 344; females; in feed; site: thyroid gland; lesion: c-cell adenoma + c-cell carcinoma + c-cell adenoma, bilateral; dosed 104 weeks; study length 104 weeks
parameter: TD50
Express your answer as a number followed by its unit.

QUERY: Entry Cc1cc(O)c(C(C)(C)C)cc1Sc1cc(C(C)(C)C)c(O)cc1C : reported TD50 = ?
RESULT: 325 mg/kg/day
